Measured values drawn from the supplement of paper PMC10567573 for this set.

B1: CAMK2D (parent)
chain: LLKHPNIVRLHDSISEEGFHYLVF

Variants of: B1
measurement-notes: protein stability index of a GFP-peptide fusion (GPS, HEK-293T) (PSI 1-6); higher = more stable;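 note: lentivirally expressed fusions sorted by FACS into six bins by GFP to DsRed ratio, PSI derived from sequencing read proportions per bin multiplied by bin number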
recorded-conditions: c terminus: a fixed tail appended
Rule: protein stability index under 3 gives FALSE, otherwise TRUE.

Given the entry "H20D" , answer whether its protein stability index meets or surpasses 3.
FALSE

How about "V23E" ?
FALSE

Now consider "R9C" .
TRUE

Also "P5D" , if possible.
FALSE

Now the variant "E16A"
FALSE

Another variant to look at: "L10A"
FALSE

Proceed to "K3L"
TRUE
